System: HT29
Assay Procedure: cytotoxic activity, IC50 against HT29 cells
Format: cell-based
Measurement Parameters: Homo sapiens; HT29 / HT-29 cells
# IC50 listing for each entry below

Smiles Text: CCCO[C@H](C[C@H](C(C)C)N(CCC)C(=O)[C@@H](NC(=O)[C@H]1CCCCN1)[C@@H](C)CC)c1nc(C(=O)N[C@@H](Cc2ccc(O)cc2)C[C@H](C)C(=O)O)cs1
Quantity Unit: nM
IC50: 12.3

Smiles Text: CC[C@H](C)[C@H](NC(=O)[C@H]1CCCCN1C)C(=O)N(COC(=O)CC(C)C)[C@H](C[C@@H](OC(C)=O)c1nc(C(=O)N[C@@H](Cc2ccc(O)cc2)C[C@H](C)C(=O)NCCS)cs1)C(C)C
Quantity Unit: nM
IC50: 4.4

---

# IC50 listing for each entry below
Assay Procedure: IC50 as ADC with Herceptin and DAR 2
Format: cell-based
Measurement Parameters: compound conjugated to Herceptin, DAR 2; cell line not given
Reported Endpoint: IC50 (nM)

Smiles Text: CCCO[C@H](C[C@H](C(C)C)N(CCC)C(=O)[C@@H](NC(=O)[C@H]1CCCCN1C)[C@@H](C)CC)c1nc(C(=O)N[C@@H](Cc2ccc(O)cc2)C[C@H](C)C(=O)NNC(=O)OCCOCCN)cs1
Reported Endpoint: IC50
Number: 0.219

Smiles Text: CCCO[C@H](C[C@H](C(C)C)N(CCC)C(=O)[C@@H](NC(=O)[C@H]1CCCCN1C)[C@@H](C)CC)c1nc(C(=O)N[C@@H](Cc2ccc(O)cc2)C[C@H](C)C(=O)NCCOCCOCCOCCOCCOCCOCCN)cs1
Reported Endpoint: IC50
Number: 0.172

Data provenance is patent US10889616B2.
